Values compiled from PubChem BioAssay AID1918939.

- System: 653999-131-R-J2-PDC complex spheroid viability;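 also: spheroids exposed to agents for seven days before readout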
- Method Summary: Anticancer human tumor 653999-131-R-J2-PDC patient-derived lung adenocarcinoma cell line growth inhibition
- Condition Context: curve of first compound; second compound 1 µM
Reported Endpoint: IC50 (µM)

INSERT INTO results (compound, reported_endpoint, rel, value_reported) VALUES
  ('COc1ccc([C@@H](O)c2cc(-c3ncnc4cc(N5CCOCC5)ccc34)c(F)cc2Cl)nn1 + NC1CCC(NC2CC2c2ccccc2)CC1', 'IC50', '=', 2.56),
  ('Nc1ncn(C2CC(O)C(CO)O2)c(=O)n1 (configuration not stated) + NC1CCC(NC2CC2c2ccccc2)CC1', 'IC50', '>', 1),
  ('Nc1ncn(C2CC(O)C(CO)O2)c(=O)n1 (configuration not stated) + NC1CC1c1ccc(-c2cccc(O)c2)cc1', 'IC50', '>', 1),
  ('O=C(C=Cn1cnc(-c2cc(C(F)(F)F)cc(C(F)(F)F)c2)n1)NNc1cnccn1 + NC1CC1c1ccc(-c2cccc(O)c2)cc1', 'IC50', '<', 0.00316),
  ('CC1COCCN1c1cc(-c2ccnn2C)c2ccnc(-c3ccn[nH]3)c2n1 (configuration not stated) + NC1CCC(NC2CC2c2ccccc2)CC1', 'IC50', '=', 0.0353),
  ('COc1cc(Nc2ncc3c(n2)-c2ccc(Cl)cc2C(c2c(F)cccc2OC)=NC3)ccc1C(=O)O + NC1CCC(NC2CC2c2ccccc2)CC1', 'IC50', '>', 1),
  ('COc1ccc([C@@H](O)c2cc(-c3ncnc4cc(N5CCOCC5)ccc34)c(F)cc2Cl)nn1 + NC1CC1c1ccc(-c2cccc(O)c2)cc1', 'IC50', '=', 0.972),
  ('COc1cc(C2c3cc4c(cc3C(OC3OC5COC(C)OC5C(O)C3O)C3COC(=O)C23)OCO4)cc(OC)c1O (configuration not stated) + NC1CC1c1ccc(-c2cccc(O)c2)cc1', 'IC50', '=', 0.11),
  ('Nc1ccccc1NC(=O)c1ccc(CNC(=O)OCc2cccnc2)cc1 + NC1CCC(NC2CC2c2ccccc2)CC1', 'IC50', '=', 0.394),
  ('COc1cc(C2c3cc4c(cc3C(OC3OC5COC(C)OC5C(O)C3O)C3COC(=O)C23)OCO4)cc(OC)c1O (configuration not stated) + NC1CCC(NC2CC2c2ccccc2)CC1', 'IC50', '=', 0.0645),
  ('O=C(c1cc(Cc2n[nH]c(=O)c3ccccc23)ccc1F)N1CCN(C(=O)C2CC2)CC1 + NC1CCC(NC2CC2c2ccccc2)CC1', 'IC50', '>', 10),
  ('NS(=O)(=O)OCC1CC(n2ccc3c(NC4CCc5ccccc54)ncnc32)CC1O (configuration not stated) + NC1CC1c1ccc(-c2cccc(O)c2)cc1', 'IC50', '>', 3);
